The reported measurements were obtained from ChEMBL document CHEMBL2062435.

System: Streptococcus pneumoniae
Assay: Antimicrobial activity against extended spectrum beta-lactamases-producing Streptococcus pneumoniae 10-1 after 18-24 hrs by two-fold serial dilution method
Type: functional
Reported log10 MIC values for a set of compounds
measured_property: log10 MIC (log10 of the value in µg/mL)

> print(dat)
                                    compound  measured.property  assay.value
 1  CS(=O)(=O)O.NCC1CN(c2nc3c(cc2F)c(=O)c(C(=O)O)cn3C2CC2)C/C1=N\OCc1ccc(OCc2ccccc2)cc1 (racemic)          log10 MIC         0.30
 2  COc1cc(F)c(CO/N=C2\CN(c3nc4c(cc3F)c(=O)c(C(=O)O)cn4C3CC3)CC2CN)cc1OC.CS(=O)(=O)O (racemic)          log10 MIC        -0.60
 3  CS(=O)(=O)O.NCC1CN(c2nc3c(cc2F)c(=O)c(C(=O)O)cn3C2CC2)C/C1=N\OCc1ccc2c(c1)OCO2 (racemic)          log10 MIC         0.00
 4  COc1ccc(OC)c(CO/N=C2\CN(c3nc4c(cc3F)c(=O)c(C(=O)O)cn4C3CC3)CC2CN)c1.CS(=O)(=O)O (racemic)          log10 MIC        -1.22
 5  COc1cc(CO/N=C2\CN(c3nc4c(cc3F)c(=O)c(C(=O)O)cn4C3CC3)CC2CN)cc(Cl)c1OC.CS(=O)(=O)O (racemic)          log10 MIC        -1.22
 6  COc1cc(CO/N=C2\CN(c3nc4c(cc3F)c(=O)c(C(=O)O)cn4C3CC3)CC2CN)ccc1OC(F)F.CS(=O)(=O)O (racemic)          log10 MIC        -0.60
 7  CS(=O)(=O)O.NCC1CN(c2nc3c(cc2F)c(=O)c(C(=O)O)cn3C2CC2)C/C1=N\OCc1ccccc1 (racemic)          log10 MIC        -0.60
 8  COc1ccc(CO/N=C2\CN(c3nc4c(cc3F)c(=O)c(C(=O)O)cn4C3CC3)CC2CN)c(Cl)c1OC.CS(=O)(=O)O (racemic)          log10 MIC        -0.30
 9  COc1ccc(CO/N=C2\CN(c3nc4c(cc3F)c(=O)c(C(=O)O)cn4C3CC3)CC2CN)c([N+](=O)[O-])c1OC.CS(=O)(=O)O (racemic)          log10 MIC         0.00
10  CO/N=C1\CN(c2nc3c(cc2F)c(=O)c(C(=O)O)cn3C2CC2)CC1CN (centres undefined)          log10 MIC         0.30
11  CS(=O)(=O)O.NCC1CN(c2nc3c(cc2F)c(=O)c(C(=O)O)cn3C2CC2)C/C1=N\OCc1ccc2c(c1)OCCO2 (racemic)          log10 MIC        -0.30
12  COc1cccc(OC)c1CO/N=C1\CN(c2nc3c(cc2F)c(=O)c(C(=O)O)cn3C2CC2)CC1CN.CS(=O)(=O)O (racemic)          log10 MIC        -0.90
13  COc1cc(CO/N=C2\CN(c3nc4c(cc3F)c(=O)c(C(=O)O)cn4C3CC3)CC2CN)ccc1OCc1ccccc1.CS(=O)(=O)O (racemic)          log10 MIC         0.60
14  COc1cc(Br)c(CO/N=C2\CN(c3nc4c(cc3F)c(=O)c(C(=O)O)cn4C3CC3)CC2CN)cc1OC.CS(=O)(=O)O (racemic)          log10 MIC         0.00
